# procedure-summary: Drug absorption in microfluidic device without PHH (LC-MS/MS)
# Type: physicochemical
# condition-set: Microfluidic device/Polystyrene plate, without PHH
# Experimental: A culture medium containing MDZ, DIC, PHE, BUF, or MPHT was added to a microfluidic device or a polystyrene plate. Subsequently, 1, 2, and 4 hours after the addition of the drugs, the amounts of these drugs were quantified with LC-MS/MS. A culture medium containing APAP (a CYP1A2 metabolite), 1OH-MDZ (a CYP3A4 metabolite), 4OH-DIC (a CYP2C9 metabolite), 4OH-MPHT (a CYP2C19 metabolite), or 1OH-BUF (a CYP2D6 metabolite) was added to a microfluidic device or a polystyrene plate. […]
outcome-measure: Drug absorption rate
// keep it numeric: no unit symbol after the value

>>> observed("CC(=O)Nc1ccc(O)cc1")
0.8987
>>> observed("CC[C@@]1(c2ccccc2)NC(=O)N(C)C1=O")
0.9897

Looking for the measured Drug absorption rate of CCC1(c2ccc(O)cc2)NC(=O)N(C)C1=O (stereo not shown) [4-hydroxymephenytoin] , can you help?
0.8633

Looking for the measured Drug absorption rate of OCc1ncc2n1-c1ccc(Cl)cc1C(c1ccccc1F)=NC2 [1-hydroxymidazolam] , can you help?
1.714

Looking for the measured Drug absorption rate of O=C(O)Cc1ccccc1Nc1c(Cl)cccc1Cl , can you help?
1.043

Looking for the measured Drug absorption rate of CCOc1ccc(NC(C)=O)cc1 , can you help?
0.9569

----------
# procedure-summary: Drug absorption in microfluidic device without PHH (LC-MS/MS)
# Type: physicochemical
# condition-set: Microfluidic device/Polystyrene plate, without PHH
outcome-measure: Drug absorption rate
// keep it numeric: no unit symbol after the value

Some compounds with recorded Drug absorption rate:
>>> observed("CC(O)c1cccc2cc(C(O)CNC(C)(C)C)oc12 (stereo not shown) [1-hydroxybufuralol]")
0.9648
>>> observed("CCc1cccc2cc(C(O)CNC(C)(C)C)oc12 (stereo not shown)")
3.327
>>> observed("O=C(O)Cc1ccccc1Nc1c(Cl)cc(O)cc1Cl [4-hydroxy diclofenac, 4-hydroxydiclofenac]")
0.725

Consider the record given below.
Looking for the measured Drug absorption rate of Cc1ncc2n1-c1ccc(Cl)cc1C(c1ccccc1F)=NC2 , can you help?
10.41
